Assay: Pharmacokinetics of PXD in rat plasma (HPLC-UV) after 14 days pretreatment with saline, silybinin or CG
Type: in vivo, rats
Conditions: rat, plasma; Group C (compound glycyrrhizin aqueous solution 13.5 mg/kg, containing glycyrrhizin 4.5 mg/kg, 14 days, then single oral 40 mg/kg PXD), rats, n = 6, mean ± SD
readoutName: Tmax (h)
Express your answer in h, writing the number without its unit.

Bench note: what Tmax did `FC(F)(F)c1ccc(CNc2ccc(Cc3c[nH]c4ncc(Cl)cc34)cn2)cn1` show?
4.1

* * *

Test: Pharmacokinetics of PXD in rat plasma (HPLC-UV) after 14 days pretreatment with saline, silybinin or CG
Format: in vivo, rats
Conditions: rat, plasma, po, 40 mg/kg, Group B (silybinin aqueous solution 150 mg/kg, containing silybinin 21 mg/kg, 14 days, then single oral 40 mg/kg PXD), rats, n = 6, mean ± SD
readoutName: Tmax (h)
Respond with the bare value in h.

Give the measured Tmax of `FC(F)(F)c1ccc(CNc2ccc(Cc3c[nH]c4ncc(Cl)cc34)cn2)cn1` .
4.17

* * *

Test: Pharmacokinetics of PXD in rat plasma (HPLC-UV) after 14 days pretreatment with saline, silybinin or CG
Assay type: in vivo, rats
Details: rat, plasma, po, 40 mg/kg, Group B (silybinin aqueous solution 150 mg/kg, containing silybinin 21 mg/kg, 14 days, then single oral 40 mg/kg PXD), rats, n = 6, mean ± SD
readoutName: Cmax (ng/mL)
Kindly provide the numeric value in ng/mL only, without the unit symbol.

What measured Cmax goes with FC(F)(F)c1ccc(CNc2ccc(Cc3c[nH]c4ncc(Cl)cc34)cn2)cn1 [PXD, Pexidartinib] ?
13000

* * *

Experiment: Pharmacokinetics of PXD in rat plasma (HPLC-UV) after 14 days pretreatment with saline, silybinin or CG
Format: in vivo, rats
Conditions: rat, plasma; Group C (compound glycyrrhizin aqueous solution 13.5 mg/kg, containing glycyrrhizin 4.5 mg/kg, 14 days, then single oral 40 mg/kg PXD), rats, n = 6, mean ± SD; read-out: Vz/F
readoutName: Vd/F (L/kg)
# unit: L/kg | format: bare number

Requested read-out: Vd/F. Entry: FC(F)(F)c1ccc(CNc2ccc(Cc3c[nH]c4ncc(Cl)cc34)cn2)cn1 [PXD, Pexidartinib]
1.81

* * *

Assay: Pharmacokinetics of PXD in rat plasma (HPLC-UV) after 14 days pretreatment with saline, silybinin or CG
Assay type: in vivo, rats
Details: rat, plasma, po, 40 mg/kg, Group A (control: saline 14 days, then single oral 40 mg/kg PXD), rats, n = 6, mean ± SD; read-out: Vz/F
readoutName: Vd/F (L/kg)
Use L/kg as the unit, but write only the number.

Can you share its Vd/F? I mean this compound: `FC(F)(F)c1ccc(CNc2ccc(Cc3c[nH]c4ncc(Cl)cc34)cn2)cn1`
4.09

* * *

Test: Pharmacokinetics of PXD in rat plasma (HPLC-UV) after 14 days pretreatment with saline, silybinin or CG
Format: in vivo, rats
Conditions: rat, plasma; Group C (compound glycyrrhizin aqueous solution 13.5 mg/kg, containing glycyrrhizin 4.5 mg/kg, 14 days, then single oral 40 mg/kg PXD), rats, n = 6, mean ± SD
readoutName: half-life (h)
Kindly answer with a numeric value in h, unit omitted.

What measured half-life goes with `FC(F)(F)c1ccc(CNc2ccc(Cc3c[nH]c4ncc(Cl)cc34)cn2)cn1` ?
5.23
